Target: T1, murine PRLR (Biacore antigen) (murine, UniProt Q08501 20-229, limits assumed)
T1 construct: also called muPRLR
T1 sequence (looked up): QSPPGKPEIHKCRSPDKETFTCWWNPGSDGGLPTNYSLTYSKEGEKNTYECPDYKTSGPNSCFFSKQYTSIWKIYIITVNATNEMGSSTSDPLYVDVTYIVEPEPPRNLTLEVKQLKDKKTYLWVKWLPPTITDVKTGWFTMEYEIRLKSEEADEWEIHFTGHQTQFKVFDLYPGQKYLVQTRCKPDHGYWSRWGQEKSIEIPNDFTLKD
Assay: SPR Biacore
measured-quantity: koff (s⁻¹)
Answers are plain numbers, in s⁻¹.

Please state koff for every binder in the list that follows.
1. Ab48 (antibody, human IgG1, kappa, V domains shown, humanized from Ab8; G1; also called Ab3 HC.1a and Ab3 LC.1a) VH: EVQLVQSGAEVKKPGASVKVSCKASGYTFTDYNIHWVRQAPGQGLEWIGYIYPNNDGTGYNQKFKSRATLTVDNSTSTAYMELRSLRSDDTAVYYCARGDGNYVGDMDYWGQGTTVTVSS VL: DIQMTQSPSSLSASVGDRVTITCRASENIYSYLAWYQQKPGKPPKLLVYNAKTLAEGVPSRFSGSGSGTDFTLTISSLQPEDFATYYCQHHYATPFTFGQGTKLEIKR
2. Ab8 (antibody, V domains shown, murine monoclonal, isotype G2b; also called murine Ab8) VH: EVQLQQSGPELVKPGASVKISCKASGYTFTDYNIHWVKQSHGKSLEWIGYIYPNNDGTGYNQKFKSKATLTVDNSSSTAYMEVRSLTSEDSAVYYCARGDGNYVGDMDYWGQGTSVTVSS VL: DIQMTQSPASLSASVGETVTITCRASENIYSYLAWYQQKQGKPPQLLVYNAKTLAEGVPSRFSGGGSGTQFSLKINSLQPEDFGSYYCQHHYATPFTFGSGTKLEIK
3. Ab27 (antibody, human IgG1, kappa, V domains shown, humanized from Ab5; G1; also called Ab2 HC.1 and Ab2 LC.1a) VH: EVQLVQSGAEVKKPGSSVKVSCKASGYTFTSFWMHWVRQAPGQGLEWMGVIDPSDTYTNYNQKFKGRVTITADESTSTAYMELSSLRSEDTAVYYCARGDYSNWFTYWGQGTLVTVSS VL: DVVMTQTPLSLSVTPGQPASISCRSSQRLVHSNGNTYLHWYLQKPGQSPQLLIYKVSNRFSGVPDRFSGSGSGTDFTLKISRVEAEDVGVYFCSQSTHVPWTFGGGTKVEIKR

1. 0.0983
2. 0.0466
3. 0.00512

Ref: patent US20170022281A1
